- test-target: androgen receptor (Homo sapiens)
- Sequence (P10275 whole entry Q868H, form open): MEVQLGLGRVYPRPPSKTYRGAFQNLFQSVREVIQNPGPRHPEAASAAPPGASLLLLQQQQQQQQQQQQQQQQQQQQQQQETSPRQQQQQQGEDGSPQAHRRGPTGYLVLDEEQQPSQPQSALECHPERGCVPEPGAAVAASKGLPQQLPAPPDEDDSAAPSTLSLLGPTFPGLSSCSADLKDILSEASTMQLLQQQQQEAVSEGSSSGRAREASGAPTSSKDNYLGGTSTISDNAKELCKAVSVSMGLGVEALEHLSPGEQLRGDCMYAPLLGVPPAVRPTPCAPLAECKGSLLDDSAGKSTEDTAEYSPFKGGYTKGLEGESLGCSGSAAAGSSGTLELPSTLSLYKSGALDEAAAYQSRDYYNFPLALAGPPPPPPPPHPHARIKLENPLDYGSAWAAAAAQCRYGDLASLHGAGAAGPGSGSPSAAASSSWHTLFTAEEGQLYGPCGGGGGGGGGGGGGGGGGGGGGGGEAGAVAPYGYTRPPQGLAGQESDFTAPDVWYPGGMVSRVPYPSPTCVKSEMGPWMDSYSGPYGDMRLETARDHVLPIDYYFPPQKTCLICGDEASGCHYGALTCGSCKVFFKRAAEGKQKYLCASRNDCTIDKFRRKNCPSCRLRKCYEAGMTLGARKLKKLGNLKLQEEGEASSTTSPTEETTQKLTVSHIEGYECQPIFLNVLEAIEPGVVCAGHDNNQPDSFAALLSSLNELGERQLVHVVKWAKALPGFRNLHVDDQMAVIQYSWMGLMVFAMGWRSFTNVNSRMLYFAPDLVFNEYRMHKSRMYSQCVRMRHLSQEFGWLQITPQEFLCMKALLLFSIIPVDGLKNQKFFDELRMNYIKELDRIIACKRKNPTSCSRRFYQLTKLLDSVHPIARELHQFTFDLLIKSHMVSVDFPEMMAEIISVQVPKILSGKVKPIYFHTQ
- test: AR Antagonist Cell Assay (MMTV-luciferase reporter, DHT-induced)
- condition-details: MDA-MB453-MMTV clone 54-19 cells, 100 pM DHT, 17 hr
pIC50: −log10 of the molar value.
observed-property: pIC50

Some solved cases for reference:
| compound | test-target | pIC50 |
| --- | --- | --- |
| O=c1cc(C(F)(F)F)c2cc(S(=O)(=O)Nc3ccc4ncccc4c3)ccc2[nH]1 [Example 93] | androgen receptor (Homo sapiens) | 5.46 |
| Cc1ccc(NS(=O)(=O)c2ccc3c(c2)c(C(F)(F)F)cc(=O)n3C)cc1 [Example 14] | androgen receptor (Homo sapiens) | 5.99 |
| Cc1ccc(-c2ccccc2)cc1NS(=O)(=O)c1ccc2c(c1)c(C(F)(F)F)cc(=O)n2C [Example 27] | androgen receptor (Homo sapiens) | 6.08 |
| CCCCCN(CCO)S(=O)(=O)c1ccc2[nH]c(=O)cc(C(F)(F)F)c2c1 [Example 74] | androgen receptor (Homo sapiens) | 6.54 |

a = CCN(Cc1ccccc1)S(=O)(=O)c1ccc2[nH]c(=O)cc(C(F)(F)F)c2c1 [Example 79]
b = C[C@@H](NS(=O)(=O)c1ccc2[nH]c(=O)cc(C(F)(F)F)c2c1)c1ccccc1 [Example 125]
Task: Which gives the smaller pIC50 number: a or b ? Please indicate the selected item by its label.
Output: b
(b: 5.53, a: 6.41)
